Let's look at some molecules and their measured activity, negative = inhibition.
# study_system: Histone-lysine N-methyltransferase EHMT2 (Homo sapiens)
# test: qHTS Assay for Inhibitors of Histone Lysine Methyltransferase G9a; further: on the % scale 0 is the no-effect control and ±100 the full control effect; nearly all actives have a fitted effect of over 75% in size
# condition_summary: G9a H3K9 monomethylation, AlphaScreen, 2 h; series mostly up to 59 µM
The campaign covered roughly 350,000 compounds. About 31,000 (8.9%) were called active. About 15% were inconclusive and are not listed. The sample as a whole holds a higher share of actives than the screen did.

Study these solved cases before continuing.
>>> measured_result("CC(=O)Oc1cccc(N2C(=O)CC(Nc3ccc(N4CCOCC4)cc3)C2=O)c1 (stereo not drawn)")
"-45.5% [at 12.7 µM] (inactive)"
>>> measured_result("O=C(COC(=O)c1ncc(Cl)c(Cl)c1Cl)NC1CCS(=O)(=O)C1 (stereo not drawn)")
"3.15% [at 12.7 µM] (inactive)"
>>> measured_result("CCN(CC)S(=O)(=O)c1ccc(NC(=O)c2cnc(C)cn2)cc1")
"0.345% [at 0.501 µM] (inactive)"

(Q) What activity, negative = inhibition value was documented for this molecule, "COc1ccc(CCNC(=O)CSc2nnc(CNC(=O)c3cccs3)o2)cc1OC" ?
(A) 30% [at 12.7 µM] (inactive)

(Q) Subsequent entry: "CCCN(C(=O)c1nc2nccc(C)n2n1)c1c(N)n(Cc2ccccc2)c(=O)[nH]c1=O"
(A) 3.83% [at 12.7 µM] (inactive)

(Q) Subsequent entry: "O=C(N[C@@H](Cc1ccccc1)C(=O)OCc1ccccc1)c1nc[nH]c1C(=O)NC1CCNCC1"
(A) -7.95% [at 2.33 µM] (inactive)
